- target under test: recombinant human ROR1 extracellular domain with a C-terminal 6xHis tag (human) (UniProt Q01973)
- Sequence (Q01973 other isoform, or with tags, fused parts or gaps): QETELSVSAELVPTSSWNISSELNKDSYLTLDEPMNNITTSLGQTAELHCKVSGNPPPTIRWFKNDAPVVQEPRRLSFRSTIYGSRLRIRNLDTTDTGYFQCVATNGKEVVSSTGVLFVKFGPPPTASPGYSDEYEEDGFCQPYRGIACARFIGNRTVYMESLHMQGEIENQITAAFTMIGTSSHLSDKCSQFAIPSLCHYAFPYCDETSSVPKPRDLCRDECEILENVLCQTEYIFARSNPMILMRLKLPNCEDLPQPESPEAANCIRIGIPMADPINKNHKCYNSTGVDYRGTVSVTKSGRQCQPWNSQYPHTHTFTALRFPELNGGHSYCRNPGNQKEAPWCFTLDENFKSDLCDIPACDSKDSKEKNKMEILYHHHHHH
- method description: SPR (Biacore T200): scFv-mFc captured on anti-mouse IgG chip, ROR1 ECD 6xHis injected, multi-cycle kinetics, 1:1 model
value kind: koff (s⁻¹)

anti-ROR1 scFv ROR1-2 fused to murine IgG2a Fc (scFv-mFc) (Fc fusion, part only; not given: murine IgG2a Fc and junction, not shown: another chain or arm of the molecule; a dimerising Fc or GST) scFv: QLQLQESGPGLVKPSETLSLTCTVSGGSINSTTSYWAWIRQPPGKGLEWIGTIFYSGKTYNNPSLKSRVTMSVDTSKNHFSLKVNSVTAADTAVYYCARFDYGFHDAFDIWGQGTMVTVSSGGGGSGGGGSGGGGSEIVMTQSPATLSLSPGERATLSCRASQSITSDYLSWYQQKPGQAPRLLIYGASTRATGIPARFSGSGSGTDFTLTISSLQPEDFVVYYCQQDYNLYTFGQGTKLEIKR: 3.94e-05
